# key: entry, value: pKa
measuredAttribute: pKa

molecule	recordedMeasurement
CCC(=O)OC(Cc1ccccc1)(c1ccccc1)C(C)CN(C)C (stereo not given)	9.06
CCC1OC(=O)CC(O)C(C)C(OC2OC(C)C(OC3CC(C)(O)C(O)C(C)O3)C(N(C)C)C2O)C(CC=O)CC(C)C(=O)C=CC(C)=CC1COC1OC(C)C(O)C(OC)C1CC (stereo not given)	7.73
CC(C(=O)O)c1ccc(-c2ccccc2)c(F)c1 (stereo not given)	4.03
CC(NC(CCc1ccccc1)C(=O)O)C(=O)N1CCCC1C(=O)O (stereo not given)	7.84
CN(C)CCC=C1c2ccccc2CCc2ccccc21	9.49
CCN(C)C(=O)Oc1cccc(C(C)N(C)C)c1 (stereo not given)	8.8
CC(C)NCC(O)COc1ccc(COCCOC(C)C)cc1 (stereo not given)	9.57
CC(C)(C)NCC(O)COc1cccc2c1C[C@H](O)[C@H](O)C2 (stereo not given in full)	9.69
COc1ccccc1OCCNCC(O)COc1cccc2[nH]c3ccccc3c12 (stereo not given)	7.97
CCOC(=O)[C@H](CCc1ccccc1)N[C@@H](C)C(=O)N1CCC[C@H]1C(=O)O	2.92

These data points were gathered from the pKa sets of Baltruschat and Czodrowski (2020).
